# system.name: mNPR1-mFc:hBNP complex (mouse; human) (UniProt P16860)
# assay.overview: SPR Biacore, mAb captured by anti-human Fc, 25C
Known 100 nM Ag Bound (RU) of a selection of binders
Expressed in RU, but write only the number.

Recorded results for 3 binders are shown here.
{"binder": "mAb22809 (antibody, human IgG4, V domains shown) VH: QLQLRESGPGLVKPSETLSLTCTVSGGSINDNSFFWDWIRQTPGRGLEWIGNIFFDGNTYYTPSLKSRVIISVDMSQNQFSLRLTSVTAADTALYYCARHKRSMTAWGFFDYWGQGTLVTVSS VL: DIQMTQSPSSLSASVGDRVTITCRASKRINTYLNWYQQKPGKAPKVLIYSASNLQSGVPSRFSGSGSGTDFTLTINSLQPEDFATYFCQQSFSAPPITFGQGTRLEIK", "readout.label": "100 nM Ag Bound (RU)", "result.units": "RU", "test.value": 1}
{"binder": "mAb22035 (antibody, human IgG4, V domains shown) VH: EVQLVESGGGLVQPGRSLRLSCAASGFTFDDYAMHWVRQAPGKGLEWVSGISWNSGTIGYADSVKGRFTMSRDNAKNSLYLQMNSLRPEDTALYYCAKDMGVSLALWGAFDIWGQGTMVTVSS VL: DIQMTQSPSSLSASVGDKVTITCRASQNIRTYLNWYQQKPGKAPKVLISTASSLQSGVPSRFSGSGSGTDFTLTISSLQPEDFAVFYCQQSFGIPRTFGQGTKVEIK", "readout.label": "100 nM Ag Bound (RU)", "result.units": "RU", "test.value": 0}
{"binder": "mAb22033 (antibody, human IgG4, V domains shown) VH: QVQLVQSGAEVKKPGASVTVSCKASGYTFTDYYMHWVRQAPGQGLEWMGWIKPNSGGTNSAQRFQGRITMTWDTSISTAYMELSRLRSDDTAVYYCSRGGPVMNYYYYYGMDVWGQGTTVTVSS VL: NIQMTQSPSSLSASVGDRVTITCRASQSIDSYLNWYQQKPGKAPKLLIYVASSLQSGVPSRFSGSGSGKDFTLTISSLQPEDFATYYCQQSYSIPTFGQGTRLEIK", "readout.label": "100 nM Ag Bound (RU)", "result.units": "RU", "test.value": 5}

Specify measured 100 nM Ag Bound (RU) for mAb25508 (antibody, human IgG4, V domains shown) VH: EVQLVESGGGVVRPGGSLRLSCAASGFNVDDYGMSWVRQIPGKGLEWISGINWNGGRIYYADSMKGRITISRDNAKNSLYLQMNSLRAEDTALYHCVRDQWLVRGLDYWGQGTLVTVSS VL: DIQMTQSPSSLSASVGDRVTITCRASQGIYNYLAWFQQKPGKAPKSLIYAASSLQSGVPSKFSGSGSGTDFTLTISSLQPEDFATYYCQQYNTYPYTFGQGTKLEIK .
1

Specify measured 100 nM Ag Bound (RU) for mAb25491 (antibody, human IgG4, V domains shown) VH: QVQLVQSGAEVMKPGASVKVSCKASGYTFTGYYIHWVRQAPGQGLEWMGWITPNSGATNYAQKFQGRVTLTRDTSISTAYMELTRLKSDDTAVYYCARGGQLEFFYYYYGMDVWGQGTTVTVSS VL: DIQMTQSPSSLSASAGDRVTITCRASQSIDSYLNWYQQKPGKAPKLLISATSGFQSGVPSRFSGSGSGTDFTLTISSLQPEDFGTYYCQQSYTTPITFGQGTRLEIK .
5
